# System: A498
# procedure-summary: NCI tumour cell line growth inhibition, 48 h
Calls of active or inactive are those of the source. No stated cut-off is given here; in the data, active = GI50 up to about 1.1 µM and inactive = higher.
experimental-readout: GI50

[
  {
    "compound": "CCC/N=C1\\S/C(=C/c2ccc(OC)c(OC)c2)C(=O)N1c1ccccc1",
    "result": "21.5 µM (inactive)"
  },
  {
    "compound": "Cc1noc(C)c1-n1nc2ccc3nonc3c2n1",
    "result": "32.7 µM (inactive)"
  },
  {
    "compound": "O=[N+]([O-])/C(C(Cl)=C(Cl)Cl)=C(\\N1CCCCC1)n1nnc2ccccc21",
    "result": "19.2 µM (inactive)"
  },
  {
    "compound": "c1cc(CSc2ncnc3[nH]cnc23)ccn1",
    "result": "> 100 µM (inactive)"
  },
  {
    "compound": "O=C(COc1ccc2c(=O)cc(-c3ccccc3)oc2c1)N1CCN(c2ccccc2)CC1",
    "result": "> 10 µM (inactive)"
  },
  {
    "compound": "COC(=O)C1=CSC2(S1)C(C(=O)OC)=CSc1c2ssc1=O (stereo not given)",
    "result": "6.28 µM (inactive)"
  },
  {
    "compound": "O=C(O)C12CCCC(CCC1)C2",
    "result": "> 100 µM (inactive)"
  },
  {
    "compound": "CC1(C)OC2CC(=O)OCC23C1CC(=O)C1(C)C3CCC2(C)C(c3ccoc3)OC(=O)C3OC321 (stereo not given)",
    "result": "> 125 µM (inactive)"
  },
  {
    "compound": "CC1(O)C(=O)OC2CC([C@]3(O)CCC4[C@@H]5C[C@H]6O[C@]67[C@@H](O)C=CC(=O)[C@]7(C)C5CC[C@@]43C)C1(C)C2 (stereo not given in full)",
    "result": "31.3 µM (inactive)"
  }
]

Now let's try a different one.
GI50 recorded for this compound, O=C1CC(c2ccccc2)=Nc2ccccc2N1 , is 24.7 µM (inactive)

* * *

# Tested on: OVCAR-3
# procedure-summary: NCI tumour cell line growth inhibition, 48 h
Active and inactive are the calls of the source. Rule as the data show it: active = GI50 up to about 1.1 µM and inactive = higher.
Entries and their measured GI50 follow.

[
  {
    "molecule": "COc1ccc(NC(=O)C(=O)Cc2nc3ccc([N+](=O)[O-])cc3nc2O)c(OC)c1",
    "experimental-readout": "GI50",
    "result": "> 100 µM (inactive)"
  },
  {
    "molecule": "O=C(/C=C/c1ccc(Cl)c(Cl)c1)c1ccccc1Cl",
    "experimental-readout": "GI50",
    "result": "9.27 µM (inactive)"
  },
  {
    "molecule": "CCC1(N=[N+]=[N-])C(=O)c2ccccc2N(C)C1=O (stereo unspecified)",
    "experimental-readout": "GI50",
    "result": "> 100 µM (inactive)"
  },
  {
    "molecule": "CCOC(=O)N/N=C(/OCC)c1ccccc1",
    "experimental-readout": "GI50",
    "result": "> 100 µM (inactive)"
  },
  {
    "molecule": "CN(C)CCCNC(CC#N)CCC#N (stereo unspecified)",
    "experimental-readout": "GI50",
    "result": "> 10 µM (inactive)"
  }
]

Just so you know, measured GI50 for N#Cc1c(-c2ccccc2)[nH]c(=O)n(C2OC(CO)C(O)C(O)C2O)c1=O (stereo unspecified) came out at > 100 µM (inactive)

* * *

# System: OVCAR-4
# procedure-summary: NCI tumour cell line growth inhibition, 48 h
Calls of active or inactive are those of the source. Rule as the data show it: active = GI50 up to about 1.1 µM and inactive = higher.
GI50: recorded values

# example entries with known answers
[
  {
    "compound": "COc1cccc2c1C(=O)c1c(O)c3c(c(O)c1C2=O)CC(O)(C(C)=O)CC3OC1OC(COC(C)=O)C(OC(C)=O)C(OC(C)=O)C1OC(C)=O (stereo not given)",
    "GI50": "18 µM (inactive)"
  },
  {
    "compound": "CN(C)CCCNc1cc(O)c2c(c1O)C(=O)c1ccccc1C2=O",
    "GI50": "12.1 µM (inactive)"
  },
  {
    "compound": "CN(C)c1ccc(/C=C2\\Oc3cc(O)ccc3C2=O)cc1",
    "GI50": "> 100 µM (inactive)"
  },
  {
    "compound": "CC(NNC(=O)c1cc[n+]([BH2-]C#N)cc1)c1ccccc1F (stereo not given)",
    "GI50": "> 100 µM (inactive)"
  }
]

Could you now look at the following compound, please?
Value of measured GI50 for the entry Cc1ccsc1/C=N/Nc1nc2ccccc2s1 : 19.7 µM (inactive)

* * *

# Tested on: COLO 205
# procedure-summary: NCI tumour cell line growth inhibition, 48 h
Active and inactive are the calls of the source. No stated cut-off is given here; in the data, active = GI50 up to about 1.1 µM and inactive = higher.
The reader will find reported GI50 values listed item by item below.

Record excerpt, results attached:
[
  {
    "compound": "CN(C)CCCNC(=O)N/N=C/c1ccccn1",
    "GI50": "> 10 µM (inactive)"
  },
  {
    "compound": "C=C(COC(C)=O)CC(OC(C)=O)c1ccccc1 (stereo unspecified)",
    "GI50": "> 100 µM (inactive)"
  },
  {
    "compound": "C#C[C@]1(O)CC[C@H]2[C@@H]3CCC4=C/C(=N/OC(=O)c5cccc6c(=O)c7ccccc7[nH]c56)CCC4[C@H]3CC[C@@]21CC (stereo partly specified)",
    "GI50": "37.2 µM (inactive)"
  },
  {
    "compound": "CC1(c2ccccc2Cl)C(C#N)C(=O)NC(=O)C1C#N (stereo unspecified)",
    "GI50": "45 µM (inactive)"
  }
]

Data point: CC1(C)CC(O)C(C)(C)[C@@H](O)C1 (stereo partly specified) ; GI50 = > 100 µM (inactive)

Field GI50 (entry COC(=O)C1C2CC3C(OC(=O)C31)C2I (stereo unspecified) ) reads > 100 µM (inactive)

Note to self: GI50 recorded for O=C(/C=C/c1ccccc1)c1cc(CN2CCOCC2)c(O)c(CN2CCOCC2)c1 was 11.3 µM (inactive)

The recorded GI50 for entry COc1ccc2cc(C(=O)c3ccccc3C(=O)O)ccc2c1 equals > 100 µM (inactive)

Given item COc1cc2c(cc1OC)CCN=C2 , the value recorded as its GI50 is > 100 µM (inactive)

GI50 reading for CC(=O)N1C(c2[nH]c3ccccc3c2-c2ccccc2)CCN1c1ccccc1 (stereo unspecified) : > 10 µM (inactive)

// sample O=c1[nH]c(=O)n(C2COC(CO)C2O)cc1F (stereo unspecified) , its GI50 was 25.1 µM (inactive)

* * *

# Tested on: M14
# procedure-summary: NCI tumour cell line growth inhibition, 48 h
Activity calls are given as the source filed them. Cut-off read from the data, not from the text of the source: active = GI50 up to about 1.1 µM and inactive = higher.
Your response should consist of one outcome taken from active, inactive

Answered cases to consult:
[
  {
    "molecule": "c1cncc(CNCCN2CCNCC2)c1",
    "class": "inactive"
  },
  {
    "molecule": "CCCCCCCCCCCCCCCCOCC(COP(=O)([O-])OCC[n+]1ccc(N(C)C)cc1)OCC (stereo unspecified)",
    "class": "inactive"
  },
  {
    "molecule": "O=C(/C=C/c1ccccc1)c1cc(CN2CCOCC2)c(O)c(CN2CCOCC2)c1",
    "class": "inactive"
  },
  {
    "molecule": "N#Cc1c(-c2ccccc2)[nH]c(=O)n(C2OC(CO)C(O)C(O)C2O)c1=O (stereo unspecified)",
    "class": "inactive"
  },
  {
    "molecule": "O=C(O)C12CCCC(CCC1)C2",
    "class": "inactive"
  }
]

Which outcome was assigned to COc1cc(C2C(Cl)C(=O)N2n2cnc3ccccc3c2=O)ccc1O (stereo unspecified) in this test?
inactive

* * *

# Test system: MDA-MB-435
# procedure-summary: NCI tumour cell line growth inhibition, 48 h
Activity calls are given as the source filed them. Cut-off read from the data, not from the text of the source: active = GI50 up to about 1.1 µM and inactive = higher.
Lab note: assign the record to one of 1 (active), -1 (inactive)

Example cases with answers are listed next.
[
  {
    "compound": "Cc1noc(C)c1-n1nc2ccc3nonc3c2n1",
    "class": -1
  },
  {
    "compound": "OC1(c2ccc(Cl)cc2)c2ccccc2C2=Nc3ccccc3CN21 (stereo not given)",
    "class": -1
  },
  {
    "compound": "NS(=O)(=O)c1ccc(/N=N/c2nc3[nH]cnc(=S)c3[nH]2)cc1",
    "class": 1
  },
  {
    "compound": "CCOC(=O)C(=O)C(=O)NN(C)C1=NCCN1",
    "class": -1
  }
]

Here is another compound to look at.
Hi, do you know how C[C@H](CCC(=O)O)[C@H]1CC[C@@]2(C)[C@@H]3C(=O)C[C@H]4C(C)(C)[C@@H](O)CC[C@]4(C)[C@H]3C(=O)C[C@]12C came out in this test?
-1

* * *

# System: HCC 2998
# procedure-summary: NCI tumour cell line growth inhibition, 48 h
Activity calls are given as the source filed them. Rule as the data show it: active = GI50 up to about 1.1 µM and inactive = higher.
Form entry, call: pick from T = active, F = inactive

Answered cases to consult:
[
  {
    "molecule": "CC1(C)C=N[N+]2(C)C3C=CC(CC3)C12 (stereo not drawn)",
    "experimental-system": "HCC 2998",
    "class": "F"
  },
  {
    "molecule": "CCCCCCCCCCCC(=O)OCC1OC(n2cc(F)c(=O)[nH]c2=O)C(NC(=O)OCc2ccccc2)C(OC(=O)CCCCCCCCCCC)C1O (stereo not drawn)",
    "experimental-system": "HCC 2998",
    "class": "F"
  },
  {
    "molecule": "COC(=O)C1C2CC3C(OC(=O)C31)C2I (stereo not drawn)",
    "experimental-system": "HCC 2998",
    "class": "F"
  },
  {
    "molecule": "CCCCC(=O)c1c(O)nc2sccn2c1=O",
    "experimental-system": "HCC 2998",
    "class": "F"
  },
  {
    "molecule": "Cc1nc2ccccc2n1Cc1nnc(-c2ccccc2)o1",
    "experimental-system": "HCC 2998",
    "class": "F"
  }
]

I'd appreciate the recorded outcome for COc1cc([C@@H]2c3cc4c(c(O)c3C[C@H]3COC(=O)[C@@H]32)OCO4)cc(OC)c1OC from this test.
T

Short answer needed: outcome of this test for Cc1cc(C)nc(NS(=O)(=O)c2ccc(Nc3c4ccccc4nc4ccc(C(=O)Nc5ccc(S(N)(=O)=O)cc5)cc34)cc2)n1 ?
F
